MIC listing for selected compounds.
tested on: P. aeruginosa ATCC 35151; assay: In vitro antibacterial MIC, 96-well broth assay; type: cell-based, Pseudomonas aeruginosa; details: Pseudomonas aeruginosa, ATCC35151; growth by A595 after 24 h; 10^5-10^6 CFU/well
PROPERTY MEASURED: MIC (µg/mL)

• NC[C@H]1O[C@H](O[C@H]2[C@H](O)[C@@H](OCC(O)CNCCCCNCC(O)CO[C@@H]3[C@@H](O)[C@H](O[C@H]4O[C@H](CN)[C@@H](O)C[C@H]4N)[C@@H](N)C[C@H]3N)[C@H](N)C[C@@H]2N)[C@H](N)C[C@@H]1O (stereo partly shown) [Compound 13a] = 4
• NCCCCNCC(O)CO[C@@H]1[C@@H](O)[C@H](O[C@H]2O[C@H](CN)[C@@H](O)C[C@H]2N)[C@@H](N)C[C@H]1N (stereo partly shown) [Compound 14a] = 16
• NC[C@H]1O[C@H](O[C@H]2[C@H](O)[C@@H](O[C@H]3O[C@H](CNC4CC4)[C@@H](O)[C@H](N)[C@H]3O)[C@H](N)C[C@@H]2N)[C@H](N)C[C@@H]1O [Compound 9a] = 32
• NC[C@H]1O[C@H](O[C@H]2[C@H](O)[C@@H](O[C@H]3O[C@H](CO)[C@@H](O)[C@H](O)[C@H]3N)[C@H](N)C[C@@H]2N)[C@H](N)C[C@@H]1O [Compound 3a] = 1
• NC[C@H]1O[C@H](O[C@H]2[C@H](OCC(O)CNCCCCNCC(O)CO[C@@H]3[C@@H](O)[C@H](N)C[C@H](N)[C@H]3O[C@H]3O[C@H](CN)[C@@H](O)C[C@H]3N)[C@@H](O)[C@H](N)C[C@@H]2N)[C@H](N)C[C@@H]1O (stereo partly shown) [Compound 27a] = 8
• NC[C@H]1O[C@H](O[C@H]2[C@H](O)[C@@H](OCCCNCCCCNCCCO[C@@H]3[C@@H](O)[C@H](O[C@H]4O[C@H](CN)[C@@H](O)C[C@H]4N)[C@@H](N)C[C@H]3N)[C@H](N)C[C@@H]2N)[C@H](N)C[C@@H]1O [Compound 18a] = 32
• NC[C@H]1O[C@H](O[C@H]2[C@H](O)[C@@H](O[C@H]3O[C@H](CO)[C@@H](O)[C@H](N)[C@H]3O)[C@H](N)C[C@@H]2N)[C@H](N)C[C@@H]1O [Tobramycin, reference compound] = 0.5
• NCC1OC(OC2C(N)CC(N)C(OC3OC(CO)C(O)C(OC4OC(CO)C(O)C(O)C4N)C3N)C2O)C(N)CC1O (stereo not shown) [Compound 3d] = 16
